Data origin: PubChem BioAssay (Tox21)

- EXPERIMENTAL PROTOCOL: qHTS assay to identify small molecule agonists of the peroxisome proliferator-activated receptor delta (PPARd) signaling pathway - cell viability counter screen (AID 743211); note: nearly all actives have a fitted effect of over 55% in size
- SETTINGS: PPARd-bla HEK293H viability, CellTiter-Glo luminescence, 17 h; series mostly up to 62.6 µM
- Description: U.S. Tox21 Program National Center for Advancing Translational Sciences [NCATS] NIH Chemical Genomics Center [NCGC] U.S. Environmental Protection Agency [EPA] National Institutes of Environmental Health Sciences [NIEHS] National Toxicology Program [NTP] U.S. Food and Drug Administration [FDA] […]
Results filed as inconclusive are left out. Active and inactive are the calls of the source. Calls come from the whole dose curve; as a rule, active = well fitted cell-killing curve with a large enough effect in the repeat runs; inconclusive = weak or mixed curves; inactive = no such curve, though single readings can be large or run the other way.
Select the correct class. Options are 1 (yes) = active, 0 (no) = inactive and nothing else.

Answered examples (8):
{"COMPOUND": "O=C1NC(=O)c2cc([N+](=O)[O-])ccc21", "CLASS NAME": "0 (no)"}
{"COMPOUND": "Cc1ccc(C(C)(C)O)cc1", "CLASS NAME": "0 (no)"}
{"COMPOUND": "OC1(c2ccccc2)CCNCC1", "CLASS NAME": "0 (no)"}
{"COMPOUND": "C[C@H]1c2cccc(O)c2C(O)=C2C(=O)[C@]3(O)C(O)=C(C(N)=O)C(=O)[C@@H](N(C)C)[C@@H]3[C@@H](O)[C@@H]21", "CLASS NAME": "0 (no)"}
{"COMPOUND": "O=c1cc(-c2ccccc2)oc2cc(O)cc(O)c12", "CLASS NAME": "0 (no)"}
{"COMPOUND": "CCC1CO1 (stereo not given)", "CLASS NAME": "0 (no)"}
{"COMPOUND": "Cc1[nH]cnc1CN1CCc2c(c3ccccc3n2C)C1=O", "CLASS NAME": "0 (no)"}
{"COMPOUND": "C=COCC(C)C", "CLASS NAME": "0 (no)"}

Query: // param item: Nc1cccc2c1CN(C1CCC(=O)NC1=O)C2=O (stereo not given) ; yields the recorded call
Result: 0 (no)

Query: Give the logged outcome of this assay for the following compound: "CCCCCCCCCCC(=O)O"
Result: 0 (no)

Query: State the result this test recorded for "CC(C)=CC(=O)C=C(C)C" .
Result: 0 (no)

Query: Name the outcome recorded for c1cc(N(CC2CO2)CC2CO2)ccc1Cc1ccc(N(CC2CO2)CC2CO2)cc1 (stereo not given) in the assay.
Result: 0 (no)

* * *

- EXPERIMENTAL PROTOCOL: qHTS assay to identify small molecule antagonists of the estrogen related receptor (ERR) signaling pathway from Tox21 library (AID 1224848); note: nearly all actives have a fitted effect of over 50% in size
- SETTINGS: ERR reporter cell line, luciferase antagonist mode, 18 h; series mostly up to 92.4 µM
Results filed as inconclusive are left out. Activity calls are given as the source filed them. Calls come from the whole dose curve; as a rule, active = well fitted inhibition curve with a large enough effect in the repeat runs; inconclusive = weak or mixed curves; inactive = no such curve, though single readings can be large or run the other way.
Respond only with the outcome that fits, drawn from Yes = active, No = inactive

Recorded results for 5 compounds are shown here.
{"COMPOUND": "CN1C(=O)OC(C)(C)C1=O", "CLASS NAME": "No"}
{"COMPOUND": "C/C=C/C=C/C=O", "CLASS NAME": "No"}
{"COMPOUND": "CC(CN(C)C)C(C)(O)Cc1ccc(Cl)cc1 (stereo not drawn)", "CLASS NAME": "No"}
{"COMPOUND": "CCOC(=O)/C=C/C(=O)OCC", "CLASS NAME": "No"}
{"COMPOUND": "COC(=O)c1nc(Cl)c(Cl)nc1N", "CLASS NAME": "Yes"}

Query: Test call, this compound: "CC(C)C=O"
Result: No

Query: # outcome recorded in this test, key = "O=C1c2ccccc2C(=O)C1c1ccc(Br)cc1"
Result: No

Query: How was "C[C@H]1c2cccc(O)c2C(O)=C2C(=O)[C@]3(O)C(O)=C(C(N)=O)C(=O)[C@@H](N(C)C)[C@@H]3[C@@H](O)[C@@H]21" classified in this test?
Result: Yes
